Data provenance: PubChem BioAssay (NCI)

# Test system: OVCAR-4 ovarian
# PROTOCOL_SUMMARY: NCI tumour cell line growth inhibition, 48 h; in the data active = GI50 below about 0.43 µM; inactive = the rest
Returns: one label drawn from active, inactive

Solved entries:
O=C(c1ccccc1)c1ccc(O)c2ncccc12 : inactive
O=C(Nc1nc(-c2ccccc2)cs1)c1cc(O)c(O)c(O)c1 : inactive
Clc1ccc(N/N=C(\c2ccccc2)c2ccccn2)nc1 : active
CCOc1ccc(NC(=O)c2cc3ccccc3cc2O)cc1 : inactive
CC(=O)Oc1ccccc1C(=O)NCCC[Se]C#N : inactive

What was the test verdict on `C[n+]1cc2cc3c(cc2c2ccccc21)OCO3` ?
inactive

What was the test verdict on `CCOC(=O)Nc1ccc(C(=O)/C=C/c2ccccc2)cc1` ?
inactive

###

# Test system: SK-MEL-2 melanoma
# PROTOCOL_SUMMARY: NCI tumour cell line growth inhibition, 48 h
METRIC_NAME: TGI (µM)
Answers are plain numbers, in µM.

Solved entries (count: 3):
CC(=O)[C@]12OC(=O)C3=C1[C@H](CC[C@@H]3C)[C@@H](C)C[C@H]2C=C(C)C : 14.7
COc1ccc2c(c1)C1c3ccccc3CCN1CCC2 (stereo not given) : 70.8
O=C(c1ccccc1)c1ccc(O)c2ncccc12 : 43.3

Please find the next compound below.
Reported TGI ( C=C1C(=O)OC2/C=C(\C)CC/C=C(\C)CC(OC(=O)/C(=C/CO)CO)[C@@H]12 (stereo not given in full) ) = 34.6

###

# Tested on: XF 498 CNS
# PROTOCOL_SUMMARY: NCI tumour cell line growth inhibition, 48 h
Provide the reported TGI of each item.

Cc1nc2ccccc2c(=O)n1/N=C(\N=Nc1ccccc1Cl)c1ccccc1 : 45.7 µM
CC(=O)OC1CC2C(C)(C)OC(=O)CC(OC(C)=O)[C@]2(C)C2CCC3(C)C(=CCC3c3ccoc3)[C@]12C (some centres undefined) : 36 µM
CN(C)CCC(=O)N1CCc2c([nH]c3ccccc23)C1c1cccnc1 (centres undefined) : > 100 µM
Cc1cc(Cl)ccc1N1C(=O)C(=O)C(c2nc3ccccc3o2)C(=O)C1=O : > 100 µM
COc1ccc(-c2cc(=O)c3ccc(F)cc3[nH]2)cc1 : > 100 µM
Cc1cccc(Cl)c1NC(=O)c1cccc([N+](=O)[O-])c1O : > 100 µM
CC1NCCc2c1[nH]c1cc(O)ccc21 (centres undefined) : > 100 µM
O=c1[nH]cc(COCC(O)CO)c(=O)[nH]1 (centres undefined) : > 100 µM

Reported TGI ( C=CCN(N=O)C(=O)N(CCCCC(NC(C)=O)C(=O)NCc1ccccc1)Cc1ccccc1 (centres undefined) ) = > 100 µM

###

# System: UACC-62 melanoma
# PROTOCOL_SUMMARY: NCI tumour cell line growth inhibition, 48 h
METRIC_NAME: TGI (µM)
One number for each entry, in µM.

Solved entries (count: 3):
O=C(CSc1nc2ccc(I)cc2c(=O)n1Cc1ccccc1)NN1C(=O)CSC1c1ccccc1 (stereo not given) : 36.7
CCCC(CCC)Oc1ccc(CCCC2=C(O)c3ccccc3C(=O)C2=O)cc1 : 17
CNC(C)[C@H]1CCC2C3CCC4C[C@@H](N(C)C(=O)c5ccccc5)CC[C@]4(C)C3CC[C@@]21C (stereo not given in full) : 2.64

Dear reader, for each entry below, please note its TGI.
1. Cc1nc2ccccc2c(=O)n1/N=C(\N=Nc1ccccc1Cl)c1ccccc1
2. COc1cc(/C=C2\CC(C)C/C(=C\c3ccc(O)c(OC)c3)C2=O)ccc1O (stereo not given)

1. 46.6
2. 4.01
